System: GRK1
Conditions: concentration: 1 μM, replicates: in singlicate; n = 1;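 also: KINOMEscan kinase panel screen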
As shown below, each of these compounds has a reported %Inh value.
Quick note: give the figure in %, leave out the unit.

Worked examples follow.
{"Compound": "COC(=O)c1c(-c2ccccc2)c2cc(Br)ccc2c(=O)n1Cc1ccc(NC(=O)CCC(=O)O)cc1", "Target system": "GRK1", "%Inh / %": 0}
{"Compound": "CCc1nc(-c2cccc(C)c2)c(-c2ccncc2)s1", "Target system": "GRK1", "%Inh / %": 25}

Could you now look at the following compound, please?
Look up %Inh: Nc1n[nH]c2ncc(-c3ccccc3)cc12 0

----------
Items are presented alongside their recorded %Inh.
Tested on: CIT
Details: concentration: 1 μM, replicates: in singlicate; n = 1
// return numeric value only (unit: %, not printed)

Record excerpt, results attached:
{"Compound": "COc1cccc(C2=C(Nc3cccc(C(=O)O)c3)C(=O)NC2=O)c1 [SB-390770]", "Quantity unit": "%", "%Inh": 39}
{"Compound": "CCS(=O)c1ccc(-c2coc3ccc(-c4nnc(C)o4)cc23)cc1 (centres unmarked)", "Quantity unit": "%", "%Inh": 2}
{"Compound": "Nc1ncnc2c1ncn2-c1cccc(F)c1 [SKF-97560]", "Quantity unit": "%", "%Inh": 6}
{"Compound": "CCCNC(=O)Nc1ccc(Oc2ncnc3ccn(C)c23)cc1", "Quantity unit": "%", "%Inh": 1}

Lab note: next compound to report on.
State the recorded %Inh for this entry: COC(=O)c1c(-c2ccccc2)c2cc(Br)ccc2c(=O)n1Cc1ccc(S(C)(=O)=O)cc1 23

----------
Tested on: EPHA5
Conditions: concentration: 1 μM, replicates: in singlicate; n = 1
Recorded metric: %Inh (%)
Kindly answer with a numeric value in %, unit omitted.

Request the reported %Inh associated with Cc1ccc(-c2ccc3c(ccc4sc5c(c43)NC[C@@H](C)N=C5N(C)C)n2)cn1 0

Look up %Inh for this compound: COc1ccc(-c2coc3ccc(-c4nnc(SCc5cccc(C#N)c5)o4)cc23)cc1 21

What measured %Inh goes with COc1ccc(-c2cc3c(C)nc(N)nc3n([C@H]3CC[C@H](OCCO)CC3)c2=O)cn1 ? 11

Return reported %Inh; argument: Cc1nc(N(C)[C@H]2CN(C(=O)CC#N)CC[C@H]2C)c2cc[nH]c2n1 2

Recorded %Inh for O=C(NCCNc1ccnc(Nc2ccc(F)cc2)n1)Nc1ccc2c(c1)OCO2 [GSK1379882] , please? 0

----------
System: MEK3
Construct: gene MAP2K3
Conditions: concentration: 1 μM, replicates: in singlicate; n = 1
Output condition met for records whose %Inh is lower than 10%, condition not met for records at or above 10%.

Past entries and their recorded results:
{"Compound": "Nc1nc(N)c2nc(-c3ccccc3)[nH]c2n1", "Label class": "condition met"}
{"Compound": "COc1ccc(Nc2nccc(N3CCC(NS(=O)(=O)c4ccc(NC(C)=O)cc4)C3)n2)cc1 (stereo not drawn)", "Label class": "condition not met"}
{"Compound": "COc1cc2ncn(-c3cc(OCc4ccc(S(C)(=O)=O)cc4)c(C(N)=O)s3)c2cc1OC", "Label class": "condition not met"}

Say whether its %Inh is strictly beneath 10%. Entry: COc1cc2ncn(-c3cc(OCCCc4ccccc4)c(C(N)=O)s3)c2cc1OC condition met

Does Cc1ccc(-c2ccc3c(ccc4sc5c(c43)NC[C@@H](C)N=C5N(C)C)n2)cn1 have %Inh strictly under 10%? condition met

Threshold test, %Inh < 10%: COc1cc2nccc(Nc3ccc(OCc4ccc(NC(C)=O)cc4)cc3)c2cc1OC.Cl condition not met

Please indicate whether the reported %Inh of O=C(Nc1n[nH]c2nc(-c3ccccc3)c(Br)cc12)C1CC1 is strictly below 10%. condition met

Strictly below 10%: is that where %Inh of Cn1c(=O)c(F)c(Nc2ccc(I)cc2F)c2c(=O)n(OC[C@H](O)CO)cnc21 sits? condition met
